Every entry's value here was drawn from the NTF2 design screens of Basanta et al. (2020).

assay-explanation: protease stability score; higher = more stable; yeast display proteolysis, trypsin and chymotrypsin;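 further: relative to predicted unfolded state with 0 unfolded-like and 1 meaning tenfold more protease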
Classify as follows. Reported protease stability score greater than or equal to 1: yes (1). Reported protease stability score below: no (0).

Use the examples below as a reference point.
# seq-text, class
rows = [
    ("DEEERAARFVLELIIRTFDTGDEHTIHELLDPHVRLWVGDKTFHGREQITHLIQRHLEELGFDHVHVHHRTIDVQGEKIELHGELELRQGDKRDTRTIKIIVQKVDGRWRITIFEIE", "yes (1)"),
    ("STREEETRRISDMIVKSLMTGDWRTFHDLLDPNVKVEINGKEMHGWKAWEDYIREMGIKVFDYHRIEVDENHLLMDGIDKVDGREHRSHYEITIIDGRIRRVEIRHK", "yes (1)"),
    ("SEHDKFTREMSEMLIEALLTGDWRIFEELADPNMRFHQGEFHFHGREEVSHRMLELVDLLGADHYDVREIRFQGDKIHTHLEYYIGDKLFRVDLHAEKVNGKWHLTIVHVDSH", "yes (1)"),
    ("DETEEEVRKFVEESVKQNNTGNEDFAKRLADPNARFEQGDKELHGREEMRRVLVELWFEDYRIERLHVQGNKVEVEVVVHGVVNGKHQEVRVIIILLKINGRWVFRDVTVK", "no (0)"),
    ("DEIEHLIRRIMEEIVHVFETGDEEKLEELMDPNTIFIIGDKRYVGREAVDVLLRRADVMTRFHIKSMRTVGDKIDLNTSIHVHFDGVHREIDTHVIARKVDGRWHWDSVRVE", "yes (1)"),
]

[in] Exam item: decide whether the reported protease stability score for `SEEDKSFEIMFKLFKEASDTGDEKTLSELFDPDTRIDIGDKHLHGREEAVRMWRELRIHDIRVKSFDIIGNKIHLDTHVNGLVNGRLHRTDSKIILLKVNGQWRIESYHVD` is at least 1.
[out] yes (1)
